- tested system: Oat3 (organic anion transporter 3) (Mus musculus, UniProt O88909)
- Sequence (O88909 whole entry): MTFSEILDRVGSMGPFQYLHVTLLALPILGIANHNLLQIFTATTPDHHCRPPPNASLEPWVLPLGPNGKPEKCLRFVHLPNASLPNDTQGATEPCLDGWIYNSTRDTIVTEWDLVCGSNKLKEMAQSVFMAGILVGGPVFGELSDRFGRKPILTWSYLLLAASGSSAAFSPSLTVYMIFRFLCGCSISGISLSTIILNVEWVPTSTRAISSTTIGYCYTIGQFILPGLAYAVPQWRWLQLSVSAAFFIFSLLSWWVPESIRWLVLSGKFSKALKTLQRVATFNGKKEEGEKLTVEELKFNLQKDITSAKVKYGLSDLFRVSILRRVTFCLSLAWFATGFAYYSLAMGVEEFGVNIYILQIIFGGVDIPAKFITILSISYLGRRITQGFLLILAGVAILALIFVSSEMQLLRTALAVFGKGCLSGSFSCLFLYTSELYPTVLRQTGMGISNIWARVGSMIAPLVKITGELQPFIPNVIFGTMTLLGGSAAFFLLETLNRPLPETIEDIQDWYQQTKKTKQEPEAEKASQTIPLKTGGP
- protocol summary: TP_TRANSPORTER: inhibition of PHA uptake (PHA: 1000uM) in mOat3-expressing oocytes
- Format: functional, cell-based, Oocyte
- Parameters: scale not given: the % may be the effect or the level left
- condition parameters: probe PHA (1000 uM)
readout: Activity (%)
A number alone suffices; assume %.

Query: Activity; subject: CN1C(C(=O)Nc2ccccn2)=C(O)c2sccc2S1(=O)=O
55

Query: Activity; subject: CCOC(=O)[C@H](CCc1ccccc1)N[C@@H](C)C(=O)N1CCC[C@H]1C(=O)O
45

Query: Activity; subject: CN/C(=N/CCSCc1nc[nH]c1C)NC#N
65

Query: Activity; subject: CC(C)Cc1ccc(C(C)C(=O)O)cc1 (centres undefined)
80

---

- tested system: Oat3 (organic anion transporter 3) (Mus musculus)
- protocol summary: TP_TRANSPORTER: inhibition of PHA uptake (PHA: 1000uM) by P-aminohippuric acid at a concentration of 10uM in mOat3-expressing oocytes
- Type: functional, cell-based, Oocyte
- Set-up: scale not given: the % may be the effect or the level left
- condition parameters: probe PHA (1000 uM), read-out: Activity
readout: activity at 10 µM (%)
A number alone suffices; assume %.

# query: activity at 10 µM | item Nc1ccc(C(=O)NCC(=O)O)cc1 | system: Oat3 (organic anion transporter 3) (Mus musculus)
20

The reported measurements were obtained from ChEMBL document CHEMBL2074036.
